Hey, just so you know, these numbers are from ChEMBL document CHEMBL1153324.

pIC50 by entry:
targetSystem: Huntingtin (Homo sapiens, UniProt P42858)
Sequence (P42858 whole entry): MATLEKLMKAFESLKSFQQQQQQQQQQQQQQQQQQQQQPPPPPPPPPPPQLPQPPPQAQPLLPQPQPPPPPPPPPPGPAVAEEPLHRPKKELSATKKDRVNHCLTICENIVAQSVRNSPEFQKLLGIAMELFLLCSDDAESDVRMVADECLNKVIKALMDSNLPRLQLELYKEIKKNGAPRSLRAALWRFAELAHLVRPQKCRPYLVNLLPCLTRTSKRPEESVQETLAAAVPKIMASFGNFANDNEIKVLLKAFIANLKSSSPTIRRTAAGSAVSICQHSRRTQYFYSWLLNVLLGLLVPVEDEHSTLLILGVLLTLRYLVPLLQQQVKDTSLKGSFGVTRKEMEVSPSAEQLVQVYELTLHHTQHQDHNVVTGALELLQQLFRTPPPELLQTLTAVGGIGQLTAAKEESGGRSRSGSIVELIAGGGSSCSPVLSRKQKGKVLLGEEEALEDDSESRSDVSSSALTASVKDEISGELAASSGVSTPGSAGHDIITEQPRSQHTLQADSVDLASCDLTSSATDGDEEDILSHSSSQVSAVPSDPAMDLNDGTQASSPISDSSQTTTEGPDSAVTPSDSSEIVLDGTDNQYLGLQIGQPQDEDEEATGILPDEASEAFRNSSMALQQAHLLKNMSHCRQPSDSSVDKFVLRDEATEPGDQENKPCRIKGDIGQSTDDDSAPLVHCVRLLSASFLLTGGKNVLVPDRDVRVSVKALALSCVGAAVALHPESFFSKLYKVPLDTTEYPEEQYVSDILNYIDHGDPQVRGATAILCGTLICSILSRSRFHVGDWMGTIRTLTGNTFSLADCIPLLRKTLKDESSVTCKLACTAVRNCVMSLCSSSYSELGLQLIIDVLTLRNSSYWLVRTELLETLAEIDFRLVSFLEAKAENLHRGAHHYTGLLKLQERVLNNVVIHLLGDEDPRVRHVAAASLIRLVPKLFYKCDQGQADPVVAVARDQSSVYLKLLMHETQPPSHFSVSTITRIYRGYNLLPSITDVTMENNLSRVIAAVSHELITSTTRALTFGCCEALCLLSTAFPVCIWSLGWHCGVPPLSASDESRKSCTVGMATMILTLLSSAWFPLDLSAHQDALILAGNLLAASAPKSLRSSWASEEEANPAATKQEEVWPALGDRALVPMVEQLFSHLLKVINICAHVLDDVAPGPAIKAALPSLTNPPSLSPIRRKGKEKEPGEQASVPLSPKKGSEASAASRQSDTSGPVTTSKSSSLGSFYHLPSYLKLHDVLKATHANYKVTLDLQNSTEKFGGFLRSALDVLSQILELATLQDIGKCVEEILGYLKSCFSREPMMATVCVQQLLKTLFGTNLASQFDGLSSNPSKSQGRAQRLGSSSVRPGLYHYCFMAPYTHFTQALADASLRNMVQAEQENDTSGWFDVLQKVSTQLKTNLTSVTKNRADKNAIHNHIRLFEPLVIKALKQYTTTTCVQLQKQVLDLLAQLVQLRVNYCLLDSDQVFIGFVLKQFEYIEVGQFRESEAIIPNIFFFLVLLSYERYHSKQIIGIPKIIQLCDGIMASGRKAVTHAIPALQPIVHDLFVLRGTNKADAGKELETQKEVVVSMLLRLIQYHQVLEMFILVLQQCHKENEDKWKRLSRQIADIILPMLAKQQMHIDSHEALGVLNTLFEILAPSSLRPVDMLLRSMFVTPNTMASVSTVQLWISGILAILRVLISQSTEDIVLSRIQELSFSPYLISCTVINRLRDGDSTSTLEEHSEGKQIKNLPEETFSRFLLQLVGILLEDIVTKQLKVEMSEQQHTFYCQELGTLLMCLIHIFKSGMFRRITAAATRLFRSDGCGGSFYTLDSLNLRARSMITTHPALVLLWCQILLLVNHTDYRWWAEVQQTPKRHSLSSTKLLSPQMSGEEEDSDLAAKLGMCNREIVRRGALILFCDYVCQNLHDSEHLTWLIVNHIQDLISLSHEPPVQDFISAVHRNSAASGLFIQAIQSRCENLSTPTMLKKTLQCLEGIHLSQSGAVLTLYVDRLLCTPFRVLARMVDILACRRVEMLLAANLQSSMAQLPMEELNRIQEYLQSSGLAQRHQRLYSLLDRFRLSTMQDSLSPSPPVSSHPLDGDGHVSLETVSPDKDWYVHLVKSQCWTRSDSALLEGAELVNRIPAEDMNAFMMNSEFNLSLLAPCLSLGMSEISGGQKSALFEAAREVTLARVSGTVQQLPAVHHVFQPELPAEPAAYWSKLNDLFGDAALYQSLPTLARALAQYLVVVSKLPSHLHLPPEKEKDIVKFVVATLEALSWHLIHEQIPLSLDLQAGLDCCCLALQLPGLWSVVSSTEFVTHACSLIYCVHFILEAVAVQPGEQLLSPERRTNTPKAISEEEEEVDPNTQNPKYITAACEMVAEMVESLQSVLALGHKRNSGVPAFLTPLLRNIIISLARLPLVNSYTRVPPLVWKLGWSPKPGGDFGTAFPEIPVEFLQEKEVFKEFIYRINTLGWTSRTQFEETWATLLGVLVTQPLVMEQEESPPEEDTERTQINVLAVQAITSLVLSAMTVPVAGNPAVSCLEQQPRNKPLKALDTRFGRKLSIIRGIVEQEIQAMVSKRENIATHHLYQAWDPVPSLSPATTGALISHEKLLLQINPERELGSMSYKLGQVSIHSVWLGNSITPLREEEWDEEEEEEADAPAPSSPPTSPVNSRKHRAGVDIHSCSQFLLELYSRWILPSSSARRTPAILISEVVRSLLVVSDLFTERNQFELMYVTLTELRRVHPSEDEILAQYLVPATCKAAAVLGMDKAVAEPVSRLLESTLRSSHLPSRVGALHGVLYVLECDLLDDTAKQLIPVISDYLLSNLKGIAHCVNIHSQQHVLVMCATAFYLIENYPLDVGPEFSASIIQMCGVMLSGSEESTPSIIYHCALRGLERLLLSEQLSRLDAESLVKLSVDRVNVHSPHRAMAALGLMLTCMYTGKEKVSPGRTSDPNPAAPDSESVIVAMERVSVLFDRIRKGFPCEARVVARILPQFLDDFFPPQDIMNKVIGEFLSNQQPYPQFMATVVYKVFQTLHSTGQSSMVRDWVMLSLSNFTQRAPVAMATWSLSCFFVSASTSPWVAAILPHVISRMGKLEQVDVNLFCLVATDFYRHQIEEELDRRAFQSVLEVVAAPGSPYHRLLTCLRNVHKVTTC
method: Inhibition of Huntingtin protein aggregation by cell based assay
experimentalParameters: read-out: IC50
The meaning of pIC50 here: minus log10 of the concentration in molar units.

Consider the worked cases shown below.
compoundStructure: CCN1CCN(c2ncnc3ccc(Br)cc23)CC1
pIC50: 5.66
--
compoundStructure: CCN1CCN(c2ncnc3ccc(F)cc23)CC1
pIC50: 5.28
--
compoundStructure: Oc1ccc(CCNc2ncnc3ccc(Br)cc23)cc1
pIC50: 5.95

(Q) Provide measured pIC50 on Huntingtin (Homo sapiens, UniProt P42858) for CCCNc1ncnc2ccc(Br)cc12 please.
(A) 5.09

(Q) Provide measured pIC50 on Huntingtin (Homo sapiens, UniProt P42858) for Brc1ccc2ncnc(N3CCNCC3)c2c1 please.
(A) 5.56

(Q) Provide measured pIC50 on Huntingtin (Homo sapiens, UniProt P42858) for Oc1ccc(CCNc2ncnc3ccc(Cl)cc23)cc1 please.
(A) 6.15

(Q) Provide measured pIC50 on Huntingtin (Homo sapiens, UniProt P42858) for Oc1ccc(CCNc2ncnc3ccc(F)cc23)cc1 please.
(A) 5.20

(Q) Provide measured pIC50 on Huntingtin (Homo sapiens, UniProt P42858) for CCN1CCN(c2ncnc3ccc(Cl)cc23)CC1 please.
(A) 5.44

(Q) Provide measured pIC50 on Huntingtin (Homo sapiens, UniProt P42858) for CN1CCN(c2ncnc3ccc(Br)cc23)CC1 please.
(A) 5.88

###

targetSystem: Huntingtin (Homo sapiens, UniProt P42858)
method: Inhibition of Huntingtin protein aggregation by cell based assay
experimentalParameters: read-out: IC50
IC50 by entry:
// return numeric value only (unit: µM, not printed)

compoundStructure: Brc1ccc2ncnc(NCc3ccccc3)c2c1
measurementLabel: IC50
quantitativeReadout: 6.13
//
compoundStructure: Clc1ccc(CCNc2ncnc3ccccc23)cc1
measurementLabel: IC50
quantitativeReadout: 10.5
//
compoundStructure: Clc1ccc(CCNc2ncnc3ccc(Cl)cc23)cc1
measurementLabel: IC50
quantitativeReadout: 3.44
//
compoundStructure: Clc1ccc2ncnc(N3CCN(Cc4ccc5c(c4)OCO5)CC3)c2c1
measurementLabel: IC50
quantitativeReadout: 1.07

Now let's try a different one.
(Q) Provide measured IC50 on Huntingtin (Homo sapiens, UniProt P42858) for C=CCNc1ncnc2ccc(Br)cc12 please.
(A) 5.36

###

EC50 by entry:
targetSystem: Huntingtin (Homo sapiens, UniProt P42858)
method: Inhibition of Huntingtin protein aggregation by yeast based assay
// return numeric value only (unit: µM, not printed)

compoundStructure: CCCNc1ncnc2ccc(Br)cc12
targetSystem: Huntingtin (Homo sapiens, UniProt P42858)
unitsText: µM
quantitativeReadout: 50

compoundStructure: C=CCNc1ncnc2ccc(Br)cc12
targetSystem: Huntingtin (Homo sapiens, UniProt P42858)
unitsText: µM
quantitativeReadout: 50

Now let's try a different one.
(Q) Please report the measured EC50 for Brc1ccc2ncnc(NCc3ccccc3)c2c1
(A) 50

###

targetSystem: UniProt P42858
method: Inhibition of Huntingtin protein aggregation by cell based assay
experimentalParameters: read-out: IC50
pIC50: −log10 of the molar value.
pIC50 by entry:

compoundStructure: CN1CCN(c2ncnc3ccc(F)cc23)CC1
result: < 5.00

compoundStructure: CCOC(=O)COc1ccc(CCNc2ncnc3ccc(Cl)cc23)cc1
result: 5.35

Now let's try a different one.
(Q) Please report the measured pIC50 for CCN1CCN(c2ncnc3ccccc23)CC1
(A) < 5.00

###

targetSystem: Huntingtin (Homo sapiens)
method: Inhibition of Huntingtin protein aggregation by cell based assay
measurementLabel: IC50

compoundStructure: Nc1ccc2ncnc(NCCc3ccc(Oc4ccccc4)cc3)c2c1
measurementLabel: IC50
result: Not Active
//
compoundStructure: Clc1ccc2ncnc(NCCc3ccc(OC4CCCC4)cc3)c2c1
measurementLabel: IC50
result: Not Active
//
compoundStructure: Clc1ccc2ncnc(NCCc3ccc(OCc4ccccc4)cc3)c2c1
measurementLabel: IC50
result: Not Active
//
compoundStructure: Clc1ccc2ncnc(NCCc3ccc(Oc4ccccc4)cc3)c2c1
measurementLabel: IC50
result: Not Active
//
compoundStructure: Brc1ccc2ncnc(N3CCN(Cc4ccc5c(c4)OCO5)CC3)c2c1
measurementLabel: IC50
result: Not Active

(Q) Provide measured IC50 on Huntingtin (Homo sapiens) for Clc1ccc(CCNc2ncnc3ccc(Br)cc23)cc1 please.
(A) Not Active

(Q) Provide measured IC50 on Huntingtin (Homo sapiens) for Fc1ccc2ncnc(NCCc3ccc(Cl)cc3)c2c1 please.
(A) Not Active

###

targetSystem: Huntingtin (Homo sapiens)
method: Inhibition of Huntingtin protein aggregation by cell based assay
experimentalParameters: read-out: IC50
pIC50: −log10 of the molar value.
pIC50 by entry:

compoundStructure: CN1CCN(c2ncnc3ccc(Cl)cc23)CC1
pIC50: < 5.00
--
compoundStructure: c1ccc2c(N3CCN(Cc4ccc5c(c4)OCO5)CC3)ncnc2c1
pIC50: < 5.00
--
compoundStructure: CN1CCN(c2ncnc3ccccc23)CC1
pIC50: < 5.00

(Q) Please report the measured pIC50 for Oc1ccc(CCNc2ncnc3ccccc23)cc1
(A) < 4.80
